So I've got a bunch of compounds here, and I need their MIC values.
Test system: M. tuberculosis MDR strain TN5904
Experiment: microbe, parasite or virus in culture
Format: cell-based, Mycobacterium tuberculosis
Conditions: Mycobacterium tuberculosis, read-out: MIC, µg/mL in M.tuberculosis strain TN5904

Exercise: Given CN(C)CCn1nnc(-c2ccc(-c3ccc(N4C[C@H](CO)OC4=O)cc3F)cn2)n1 [AKG-16] , report its MIC on M. tuberculosis MDR strain TN5904.
Key: 0.06 µg/mL

Exercise: Given CC(=O)NC[C@H]1CN(c2ccc(-c3ccc(-c4nnn(CCN(C)C)n4)nc3)c(F)c2)C(=O)O1 [AKG-38] , report its MIC on M. tuberculosis MDR strain TN5904.
Key: 0.03 µg/mL

Exercise: Given CCN(CC)CCn1nnc(-c2ccc(-c3ccc(N4C[C@H](CNC(C)=O)OC4=O)cc3F)cn2)n1 [AKG-39] , report its MIC on M. tuberculosis MDR strain TN5904.
Key: 0.25 µg/mL

Exercise: Given Cl.Cl.NCCn1nnc(-c2ccc(-c3ccc(N4C[C@H](CN)OC4=O)cc3F)cn2)n1 [AKG-29] , report its MIC on M. tuberculosis MDR strain TN5904.
Key: 0.06 µg/mL

Exercise: Given COc1c(N2C[C@@H]3CCCN[C@@H]3C2)c(F)cc2c(=O)c(C(=O)O)cn(C3CC3)c12 [MOX] , report its MIC on M. tuberculosis MDR strain TN5904.
Key: 0.125 µg/mL

Exercise: Given CN(C)CCn1nnc(-c2ccc(-c3ccc(N4C[C@H](CN)OC4=O)cc3F)cn2)n1.Cl [AKG-28] , report its MIC on M. tuberculosis MDR strain TN5904.
Key: 0.015 µg/mL

Exercise: Given CC(=O)NC[C@H]1CN(c2ccc(N3CCOCC3)c(F)c2)C(=O)O1 [Linezolid] , report its MIC on M. tuberculosis MDR strain TN5904.
Key: 1 µg/mL

Exercise: Given Cl.Cn1nnc(-c2ccc(-c3ccc(N4C[C@H](CN)OC4=O)cc3F)cn2)n1 [AKG-3] , report its MIC on M. tuberculosis MDR strain TN5904.
Key: 0.06 µg/mL

----------
System: M. tuberculosis MDR strain M14
Assay: microbe, parasite or virus in culture
Type: cell-based, Mycobacterium tuberculosis
Details: Mycobacterium tuberculosis, read-out: MIC, µg/mL in M.tuberculosis strain M14
So I've got a bunch of molecules here, and I need their MIC values.
The reply should consist of the numeric value with the unit placed after it.

Exercise: Return reported MIC. Input molecule: `CC(=O)NC[C@H]1CN(c2ccc(N3CCOCC3)c(F)c2)C(=O)O1`
Key: 0.5 µg/mL

Exercise: Return reported MIC. Input molecule: `Cl.Cl.NCCn1nnc(-c2ccc(-c3ccc(N4C[C@H](CN)OC4=O)cc3F)cn2)n1`
Key: 0.06 µg/mL

Exercise: Return reported MIC. Input molecule: `CN(C)CCn1nnc(-c2ccc(-c3ccc(N4C[C@H](CN)OC4=O)cc3F)cn2)n1.Cl`
Key: 0.015 µg/mL

Exercise: Return reported MIC. Input molecule: `Cl.Cn1nnc(-c2ccc(-c3ccc(N4C[C@H](CN)OC4=O)cc3F)cn2)n1`
Key: 0.03 µg/mL

----------
System: M. tuberculosis MDR strain M70
Test: microbe, parasite or virus in culture
Type: cell-based, Mycobacterium tuberculosis
Conditions: Mycobacterium tuberculosis, read-out: MIC, µg/mL in M.tuberculosis strain M70
So I've got a bunch of molecules here, and I need their MIC values.
Record the value in µg/mL, omitting the unit from your answer.

Exercise: Return reported MIC. Input molecule: `CCN(CC)CCn1nnc(-c2ccc(-c3ccc(N4C[C@H](CNC(C)=O)OC4=O)cc3F)cn2)n1`
Key: 0.125

Exercise: Return reported MIC. Input molecule: `COc1c(N2C[C@@H]3CCCN[C@@H]3C2)c(F)cc2c(=O)c(C(=O)O)cn(C3CC3)c12`
Key: 1

Exercise: Return reported MIC. Input molecule: `CN(C)CCn1nnc(-c2ccc(-c3ccc(N4C[C@H](CO)OC4=O)cc3F)cn2)n1`
Key: 0.125

Exercise: Return reported MIC. Input molecule: `CC(=O)NC[C@H]1CN(c2ccc(N3CCOCC3)c(F)c2)C(=O)O1`
Key: 0.5

----------
Tested on: M. tuberculosis MDR strain M14
Assay: microbe, parasite or virus in culture
Format: cell-based, Mycobacterium tuberculosis
Details: Mycobacterium tuberculosis, read-out: MIC, µg/mL in M.tuberculosis strain M14
recorded-metric: MIC
The reply should consist of the numeric value with the unit placed after it.

Exercise: Return reported MIC. Input molecule: `CN(C)CCn1nnc(-c2ccc(-c3ccc(N4C[C@H](CO)OC4=O)cc3F)cn2)n1`
Key: 0.06 µg/mL

Exercise: Return reported MIC. Input molecule: `CC(=O)NC[C@H]1CN(c2ccc(-c3ccc(-c4nnn(CCN(C)C)n4)nc3)c(F)c2)C(=O)O1`
Key: 0.03 µg/mL

Exercise: Return reported MIC. Input molecule: `CCN(CC)CCn1nnc(-c2ccc(-c3ccc(N4C[C@H](CNC(C)=O)OC4=O)cc3F)cn2)n1`
Key: 0.5 µg/mL

Exercise: Return reported MIC. Input molecule: `COc1c(N2C[C@@H]3CCCN[C@@H]3C2)c(F)cc2c(=O)c(C(=O)O)cn(C3CC3)c12`
Key: 0.125 µg/mL

----------
So I've got a bunch of compounds here, and I need their MIC values.
Test system: M. tuberculosis H37Rv
Assay: microbe, parasite or virus in culture
Type: cell-based, Mycobacterium tuberculosis
Settings: Mycobacterium tuberculosis, H37RV, read-out: MIC, µg/mL in M.tuberculosis strain H37Rv
The reply should consist of the numeric value with the unit placed after it.

Exercise: Return reported MIC. Input compound: `CC(=O)NC[C@H]1CN(c2ccc(N3CCOCC3)c(F)c2)C(=O)O1`
Key: 2 µg/mL

Exercise: Return reported MIC. Input compound: `Cl.Cl.NCCn1nnc(-c2ccc(-c3ccc(N4C[C@H](CN)OC4=O)cc3F)cn2)n1`
Key: 0.25 µg/mL

Exercise: Return reported MIC. Input compound: `Cl.Cn1nnc(-c2ccc(-c3ccc(N4C[C@H](CN)OC4=O)cc3F)cn2)n1`
Key: 0.125 µg/mL

Exercise: Return reported MIC. Input compound: `CN(C)CCn1nnc(-c2ccc(-c3ccc(N4C[C@H](CN)OC4=O)cc3F)cn2)n1.Cl`
Key: 0.03 µg/mL

Exercise: Return reported MIC. Input compound: `CC(=O)NC[C@H]1CN(c2ccc(-c3ccc(-c4nnn(CCN(C)C)n4)nc3)c(F)c2)C(=O)O1`
Key: 0.03 µg/mL

Exercise: Return reported MIC. Input compound: `COc1c(N2C[C@@H]3CCCN[C@@H]3C2)c(F)cc2c(=O)c(C(=O)O)cn(C3CC3)c12`
Key: 0.125 µg/mL

----------
System: M. tuberculosis MDR strain M70
Assay: microbe, parasite or virus in culture
Assay type: cell-based, Mycobacterium tuberculosis
Details: Mycobacterium tuberculosis, read-out: MIC, µg/mL in M.tuberculosis strain M70
recorded-metric: MIC

Exercise: Return reported MIC. Input compound: Cl.Cn1nnc(-c2ccc(-c3ccc(N4C[C@H](CN)OC4=O)cc3F)cn2)n1 [AKG-3]
Key: ≤ 0.015 µg/mL

Exercise: Return reported MIC. Input compound: Cl.Cl.NCCn1nnc(-c2ccc(-c3ccc(N4C[C@H](CN)OC4=O)cc3F)cn2)n1 [AKG-29]
Key: ≤ 0.03 µg/mL

Exercise: Return reported MIC. Input compound: CN(C)CCn1nnc(-c2ccc(-c3ccc(N4C[C@H](CN)OC4=O)cc3F)cn2)n1.Cl [AKG-28]
Key: ≤ 0.004 µg/mL

Exercise: Return reported MIC. Input compound: CC(=O)NC[C@H]1CN(c2ccc(-c3ccc(-c4nnn(CCN(C)C)n4)nc3)c(F)c2)C(=O)O1 [AKG-38]
Key: ≤ 0.015 µg/mL
